# Tested on: Kocuria rhizophila
# test: Antibacterial activity against Kocuria rhizophila ATCC 9341 after 24 hrs by microbroth double dilution method
# Assay type: functional
# conditionParameters: ATCC 9341, 24 h
Threshold check on MIC: strictly below 1000 µM is True; on or above 1000 µM is False.

Here's what some known entries look like.
query: In the record for CC(C)(C)C1=CC(=O)C=C(N[C@@H](Cc2c[nH]c3ccccc23)C(=O)O)C1=O , is MIC less than 1000 µM?
result: False

query: In the record for NCC[C@H](O)C(=O)N[C@@H]1C[C@H](N)[C@@H](O[C@H]2O[C@H](CN)[C@@H](O)[C@H](O)[C@H]2O)[C@H](O)[C@H]1O[C@H]1O[C@H](CO)[C@@H](O)[C@H](N)[C@H]1O , is MIC less than 1000 µM?
result: True

query: In the record for CSCC[C@H](NC1=CC(=O)C=C(C(C)(C)C)C1=O)C(=O)O , is MIC less than 1000 µM?
result: False

query: In the record for CC1=CCC[C@H]2[C@](C)(CC3=CC(=O)C=C(N[C@@H](Cc4ccccc4)C(=O)O)C3=O)[C@@H](C)CC[C@]12C , is MIC less than 1000 µM?
result: True

query: In the record for CC1=CCC[C@H]2[C@](C)(CC3=CC(=O)C=C(N[C@@H](C(=O)O)C(C)C)C3=O)[C@@H](C)CC[C@]12C , is MIC less than 1000 µM?
result: False

query: In the record for CC(C)[C@@H](NC1=CC(=O)C=C(C(C)(C)C)C1=O)C(=O)O , is MIC less than 1000 µM?
result: False

query: In the record for CC(C)(C)C1=CC(=O)C(N2CCC[C@H]2C(=O)O)=CC1=O , is MIC less than 1000 µM?
result: False

Switching to the query record.
query: In the record for CC1=CCC[C@H]2[C@](C)(CC3=CC(=O)C=C(N[C@@H](Cc4c[nH]c5ccccc45)C(=O)O)C3=O)[C@@H](C)CC[C@]12C , is MIC less than 1000 µM?
result: True
